- assay: Octanol/water partition coefficient, logP of the compound by shake flask method
- Format: physicochemical
recordedMetric: logP
Just the number, please, no unit after it.

In the examples that follow, each entry is paired with its recorded logP.
molecule	logP
COc1ccc([C@@H]2CC(=O)c3c(O)cc(O)cc3O2)cc1O	2.15
COc1ccc([C@@H]2CC(=O)c3c(cc(O)c(CNCCc4ccc([N+](=O)[O-])cc4)c3O)O2)cc1O	1.73
CCC(C)NCc1c(O)cc2c(c1O)C(=O)C[C@@H](c1ccc(OC)c(O)c1)O2 (some centres not stated)	0.04
COc1ccc([C@@H]2CC(=O)c3c(cc(O)c(CNCCCN4CCOCC4)c3O)O2)cc1O	1.2
CCN(CC)Cc1c(O)cc2c(c1O)C(=O)C[C@@H](c1ccc(OC)c(O)c1)O2	1.68
COc1ccc([C@@H]2CC(=O)c3c(cc(O)c(CNC(C)(C)C)c3O)O2)cc1O	-0.76
COc1ccc([C@@H]2CC(=O)c3c(cc(O)c(CNCCc4ccccc4)c3O)O2)cc1O	1.67
COc1ccc([C@@H]2CC(=O)c3c(cc(O)c(CN4CCN(C)CC4)c3O)O2)cc1O	1.19

Let me know recorded logP for COc1ccc([C@@H]2CC(=O)c3c(cc(O)c(CNC(C)c4ccccc4)c3O)O2)cc1O (some centres not stated) , thanks.
1.72

Give the measured logP for COc1ccc([C@@H]2CC(=O)c3c(cc(O)c(CN4CCN(CCN5CCOCC5)CC4)c3O)O2)cc1O
1.18

For the molecule COc1ccc(CCNCc2c(O)cc3c(c2O)C(=O)C[C@@H](c2ccc(OC)c(O)c2)O3)cc1 , report logP.
1.56

Item COc1ccc([C@@H]2CC(=O)c3c(cc(O)c(CN(C)C)c3O)O2)cc1O : provide logP
1.03

Let me know recorded logP for COc1ccc([C@@H]2CC(=O)c3c(cc(O)c(CN4CCOCC4)c3O)O2)cc1O , thanks.
1.23

Taken from ChEMBL document CHEMBL3763074.
